# Parameters: species or system Sprague-Dawley rats
# CONDITION_INFO: rat, in vivo, iv, 2 mg/kg
Square brackets hold non-standard residues; d marks the D form. Peptide text beside a SMILES is read from it. * marks the point of attachment. Piperazin2one(3S-Bu,6R-CO) = CCCC[C@@H]1NC[C@H](C(=O)*)NC1=O; X1 = N=C(N)NCCC[C@H]1C(=O)N[C@@H](C(N)=O)CN1*; Nle = CCCC[C@H](N)C(=O)O

COMPOUND	Vd / L/kg
CCCC[C@@H]1NC[C@H](C(=O)N[C@@H](C)C(=O)N[C@@H](Cc2c[nH]cn2)C(=O)N[C@@H](Cc2ccccc2)C(=O)NCC(=O)NCC(=O)N[C@@H](CCCNC(=N)N)C(=O)N[C@@H](CCCC)C(=O)N[C@@H](CC(=O)O)C(=O)N[C@@H](CCCNC(=N)N)C(=O)N[C@H](C(=O)N[C@@H](CO)C(=O)N[C@@H](C)C(=O)N[C@@H](Cc2ccc(O)cc2)C(=O)N2C[C@H](C(N)=O)NC(=O)[C@@H]2CCCNC(=N)N)[C@@H](C)CC)NC1=O [Construct 1-30] ({Piperazin2one(3S-Bu,6R-CO)}-AHFGGR[Nle]DRISAY-X1)	0.6
